Each entry below carries its recorded residual activity.
target-entity: NEK9 (human) (UniProt Q8TD19)
Sequence (Q8TD19 whole entry, looked up): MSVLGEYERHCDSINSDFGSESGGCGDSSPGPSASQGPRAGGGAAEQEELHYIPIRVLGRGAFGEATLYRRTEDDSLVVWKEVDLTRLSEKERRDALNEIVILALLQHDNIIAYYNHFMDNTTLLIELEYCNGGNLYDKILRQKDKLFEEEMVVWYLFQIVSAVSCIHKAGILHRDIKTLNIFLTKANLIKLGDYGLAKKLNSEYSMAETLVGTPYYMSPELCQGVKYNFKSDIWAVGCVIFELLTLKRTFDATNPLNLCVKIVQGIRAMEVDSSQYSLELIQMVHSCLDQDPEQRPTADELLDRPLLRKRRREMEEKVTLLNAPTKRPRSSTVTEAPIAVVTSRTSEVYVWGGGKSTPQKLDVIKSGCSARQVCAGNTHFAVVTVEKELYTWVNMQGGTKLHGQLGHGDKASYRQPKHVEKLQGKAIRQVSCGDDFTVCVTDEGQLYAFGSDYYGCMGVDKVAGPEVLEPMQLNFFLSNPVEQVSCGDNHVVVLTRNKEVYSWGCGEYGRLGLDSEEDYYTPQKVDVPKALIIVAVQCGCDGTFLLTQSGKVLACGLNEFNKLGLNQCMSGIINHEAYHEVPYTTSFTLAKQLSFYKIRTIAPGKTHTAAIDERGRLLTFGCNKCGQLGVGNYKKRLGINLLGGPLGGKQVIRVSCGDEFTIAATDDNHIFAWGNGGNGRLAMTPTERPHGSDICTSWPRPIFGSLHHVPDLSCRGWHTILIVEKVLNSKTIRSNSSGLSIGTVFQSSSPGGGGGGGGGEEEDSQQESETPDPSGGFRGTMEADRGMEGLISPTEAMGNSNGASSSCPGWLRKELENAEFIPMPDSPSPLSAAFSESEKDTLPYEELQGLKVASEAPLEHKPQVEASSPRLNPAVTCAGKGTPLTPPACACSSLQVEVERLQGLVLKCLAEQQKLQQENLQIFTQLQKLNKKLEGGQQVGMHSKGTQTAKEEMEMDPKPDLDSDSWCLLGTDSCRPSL
protocol-text: radiometric filter-binding kinase assay, Kinase HotSpot
particulars: compound 0.5 µM; ATP 10 µM
I'd appreciate it if you wrote the number followed by its unit.

See these solved cases before continuing.
Ask | Lookup: residual activity / NEK9 (human) (UniProt Q8TD19) / Nc1nc(Nc2ccc(S(N)(=O)=O)cc2)nn1C(=O)c1c(F)cccc1F
Reply | 82.2%

Ask | // lookup residual activity | system=NEK9 (human) (UniProt Q8TD19) | key= COc1ccc(-c2cnc3c(-c4ccsc4)cnn3c2)cc1
Reply | 90.3%

Ask | Quick check: residual activity on NEK9 (human) (UniProt Q8TD19), item Clc1ccc(Nc2nnc(Cc3ccncc3)c3ccccc23)cc1 ?
Reply | 98.4%

Ask | Form field: residual activity recorded for O=C1Nc2ccccc2/C1=C\c1c(Cl)[nH]c2ccccc12 with NEK9 (human) (UniProt Q8TD19) (enter value)
Reply | 94.2%

Ask | // map Oc1ccc(-c2nc(-c3ccc(F)cc3)c(-c3ccncc3)[nH]2)cc1 to recorded residual activity (system: NEK9 (human) (UniProt Q8TD19))
Reply | 99.4%

More entries:
Ask | Query the reported residual activity for NEK9 (human) (UniProt Q8TD19); item: Nc1n[nH]c2nnc(-c3c(-c4ccccc4)nn4ccccc34)cc12
Reply | 93.4%

Ask | What value of residual activity on NEK9 (human) (UniProt Q8TD19) does COc1cc2ncnc(Nc3ccc(F)c(Cl)c3)c2cc1OCCCN1CCOCC1 have?
Reply | 99.3%

Ask | Notebook: pull reported residual activity for NEK9 (human) (UniProt Q8TD19), entry CCCNC(=O)Nc1ccc(Oc2ncnc3cc(OC)c(OC)cc23)cc1Cl
Reply | 83.3%

Ask | Find residual activity (NEK9 (human) (UniProt Q8TD19)) for the entry CSc1nc(-c2ccc(F)cc2)c(-c2ccnc(NC(C)c3ccccc3)c2)[nH]1 (configuration not stated)
Reply | 89.4%

Ask | Item: Nc1nc(Nc2ccc(S(N)(=O)=O)cc2)nn1C(=S)Nc1c(F)cccc1F Test system: NEK9 (human) (UniProt Q8TD19) Read-out: residual activity Value: ?
Reply | 39.1%

Ask | Any idea what residual activity came out for CC(C)(C)c1nc2c3ccc(F)cc3c3c(=O)[nH]ccc3c2[nH]1 on NEK9 (human) (UniProt Q8TD19)?
Reply | 71.7%

Ask | I'm curious: which residual activity was measured for COc1cc2nccc(Oc3ccc(NC(=S)NC(=O)c4ccccc4C)cc3)c2cc1OC tested on NEK9 (human) (UniProt Q8TD19)?
Reply | 103%

Ask | // fetch NEK9 (human) (UniProt Q8TD19) residual activity for NC(=O)c1ccc(N(C(N)=O)c2c(F)cccc2F)nc1-c1ccc(F)cc1F
Reply | 104%

Ask | API: value(readout=residual activity, system=NEK9 (human) (UniProt Q8TD19)) for record CCN1/C(=C/C(C)=O)Sc2ccc(OC)cc21
Reply | 102%

Ask | Entry O=c1cc(-c2cccc3c2Sc2ccccc2S3)oc(N2CCOCC2)c1 , system NEK9 (human) (UniProt Q8TD19): what residual activity was measured?
Reply | 110%

Ask | State its residual activity on NEK9 (human) (UniProt Q8TD19): Cc1cc2ncc(-c3ccccc3)nc2cc1C
Reply | 93.1%

----------
target-entity: TYRO3 (human)
protocol-text: radiometric filter-binding kinase assay, Kinase HotSpot
particulars: compound 0.5 µM; ATP 10 µM
Below, each entry is listed alongside its reported residual activity.
Please state the number and follow it with the unit.

Please review the entries below; each comes with its answer.
Ask | I'd like to know its residual activity. The compound in question is O=C1Nc2cc(Br)ccc2/C1=C1/Nc2ccccc2/C1=N\O
Reply | 81.6%

Ask | What does the record list as residual activity for NC(=O)c1ccc(N(C(N)=O)c2c(F)cccc2F)nc1-c1ccc(F)cc1F ?
Reply | 101%

Ask | Could you share which residual activity value was measured for O=C(NC(NC(=S)Nc1ccc(F)c([N+](=O)[O-])c1)C(Cl)(Cl)Cl)C(c1ccccc1)c1ccccc1 (stereo not given) ?
Reply | 108%

Ask | Entry under review: O=C(Nc1ccc(Cl)cc1)c1ccccc1NCc1ccncc1 . Reported residual activity?
Reply | 105%

Ask | Fill in: residual activity of CCCNC(=O)Nc1ccc(Oc2ncnc3cc(OC)c(OC)cc23)cc1Cl is ___
Reply | 102%

Ask | Fill in: residual activity of O=C1Cc2c([nH]c3ccc([N+](=O)[O-])cc23)-c2ccccc2N1 is ___
Reply | 96.7%

Ask | Look up residual activity for this compound: Nc1n[nH]c2nnc(-c3c(-c4ccccc4)nn4ccccc34)cc12
Reply | 97.6%

Ask | Would you mind telling me what residual activity value was observed for Cc1ccc(NC(=O)c2ccc(CN3CCN(C)CC3)cc2)cc1Nc1nc(-c2cccnc2)cs1 ?
Reply | 98.9%

Others:
Ask | Requested read-out: residual activity. Entry: CC(C)n1cnc2c(Nc3cccc(Cl)c3)nc(NCCO)nc21
Reply | 92.7%

Ask | # lookup: residual activity of CC(C)[C@H](CO)Nc1nc(Nc2cccc(Cl)c2)c2ncn(C(C)C)c2n1
Reply | 98.9%

----------
target-entity: MAP3K9 (human)
protocol-text: radiometric filter-binding kinase assay, Kinase HotSpot
particulars: compound 0.5 µM; ATP 10 µM
# key: entry, value: residual activity
Just the number please, in %, no unit attached.

Ask | What value of measured residual activity is listed for Cc1ccc(NC(=O)c2ccc(CN3CCN(C)CC3)cc2)cc1Nc1nc(-c2cccnc2)cs1 ?
Reply | 104

Ask | Any idea what its residual activity is? The compound is O=C1Cc2c([nH]c3ccc([N+](=O)[O-])cc23)-c2ccccc2N1
Reply | 10.5

----------
target-entity: BRSK2 (human) (UniProt Q8IWQ3)
Sequence (Q8IWQ3 whole entry, looked up): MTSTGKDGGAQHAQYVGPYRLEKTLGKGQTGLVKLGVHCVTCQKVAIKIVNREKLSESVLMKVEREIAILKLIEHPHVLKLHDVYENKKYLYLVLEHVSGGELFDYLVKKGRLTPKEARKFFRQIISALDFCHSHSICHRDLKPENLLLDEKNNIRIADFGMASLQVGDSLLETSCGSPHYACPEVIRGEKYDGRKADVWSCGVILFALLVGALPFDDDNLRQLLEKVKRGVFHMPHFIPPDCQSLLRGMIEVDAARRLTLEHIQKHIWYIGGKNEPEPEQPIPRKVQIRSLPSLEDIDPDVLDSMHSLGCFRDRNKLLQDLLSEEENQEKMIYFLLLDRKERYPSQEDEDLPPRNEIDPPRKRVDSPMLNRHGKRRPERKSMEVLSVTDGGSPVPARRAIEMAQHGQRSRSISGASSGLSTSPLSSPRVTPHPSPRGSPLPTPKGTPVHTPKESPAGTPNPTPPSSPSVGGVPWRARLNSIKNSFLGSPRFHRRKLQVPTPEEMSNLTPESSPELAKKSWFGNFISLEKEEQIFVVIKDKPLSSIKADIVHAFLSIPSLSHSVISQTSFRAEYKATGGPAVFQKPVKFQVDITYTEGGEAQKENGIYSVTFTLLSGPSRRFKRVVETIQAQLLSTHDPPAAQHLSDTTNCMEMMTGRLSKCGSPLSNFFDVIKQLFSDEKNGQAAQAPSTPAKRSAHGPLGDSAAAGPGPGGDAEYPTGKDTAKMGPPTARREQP
protocol-text: radiometric filter-binding kinase assay, Kinase HotSpot
particulars: compound 0.5 µM; ATP 10 µM
quantity-measured: residual activity (%)
Write the value in % as a bare number.

The following compounds have reported results that may help.
Ask | Query: residual activity; subject: O=C(Nc1ccc(Cl)cc1)c1ccccc1NCc1ccncc1
Reply | 102

Ask | Data request, read-out residual activity, for COc1cc2nccc(Oc3ccc(NC(=S)NC(=O)c4ccccc4C)cc3)c2cc1OC
Reply | 93

Ask | Consider the compound shown here: CCCNC(=O)Nc1ccc(Oc2ncnc3cc(OC)c(OC)cc23)cc1Cl What is its recorded residual activity?
Reply | 96.7

Ask | Quick one: residual activity for C#Cc1cccc(Nc2ncnc3cc(OCCOC)c(OCCOC)cc23)c1 ?
Reply | 100

Ask | Requested field: residual activity. Item: NC(=O)c1ccc(N(C(N)=O)c2c(F)cccc2F)nc1-c1ccc(F)cc1F
Reply | 96.6

Next:
Ask | Please give the measured residual activity for this compound: O=C1Cc2c([nH]c3ccc([N+](=O)[O-])cc23)-c2ccccc2N1
Reply | 34.5

Ask | Entry under review: Oc1ccc(-c2nc(-c3ccc(F)cc3)c(-c3ccncc3)[nH]2)cc1 . Reported residual activity?
Reply | 101

Ask | // residual activity lookup, key: O=C1Nc2cc(Br)ccc2/C1=C1/Nc2ccccc2/C1=N\O
Reply | 19.4

Ask | Please report the recorded residual activity for Nc1n[nH]c2nnc(-c3c(-c4ccccc4)nn4ccccc34)cc12 .
Reply | 96.1

Ask | Which value of residual activity has been reported for Cc1ccc(NC(=O)c2ccc(CN3CCN(C)CC3)cc2)cc1Nc1nc(-c2cccnc2)cs1 in the records?
Reply | 99.9

Ask | Name the reported residual activity value associated with the compound O=C(NC(NC(=S)Nc1ccc(F)c([N+](=O)[O-])c1)C(Cl)(Cl)Cl)C(c1ccccc1)c1ccccc1 (configuration not stated)
Reply | 102

Ask | Which measured residual activity value corresponds to O=C1Nc2ccccc2/C1=C\c1c(Cl)[nH]c2ccccc12 ?
Reply | 96.2

Ask | # lookup: residual activity of Cc1cc2ncc(-c3ccccc3)nc2cc1C
Reply | 102

Ask | Would you mind telling me what residual activity value was observed for CC(C)[C@H](CO)Nc1nc(Nc2cccc(Cl)c2)c2ncn(C(C)C)c2n1 ?
Reply | 97.8

Ask | Item under review: O=c1cc(N2CCNCC2)oc2c(-c3ccccc3)cccc12 . Reported residual activity?
Reply | 103

Ask | Requested field: residual activity. Item: COc1cc2ncnc(Nc3ccc(F)c(Cl)c3)c2cc1OCCCN1CCOCC1
Reply | 103

Ask | Record request: residual activity value, item CC(C)n1cnc2c(Nc3cccc(Cl)c3)nc(NCCO)nc21
Reply | 95

Ask | Which measured residual activity value corresponds to CSc1nc(-c2ccc(F)cc2)c(-c2ccnc(NC(C)c3ccccc3)c2)[nH]1 (configuration not stated) ?
Reply | 94.8

Ask | Value lookup for residual activity; key = COc1ccc(-c2cnc3c(-c4ccsc4)cnn3c2)cc1
Reply | 94.1

Ask | Given the entry CS(=O)c1ccc(-c2nc(-c3ccc(F)cc3)c(-c3ccncc3)[nH]2)cc1 (configuration not stated) , report its measured residual activity.
Reply | 101

Ask | Request the reported residual activity associated with Clc1ccc(Nc2nnc(Cc3ccncc3)c3ccccc23)cc1
Reply | 97.1

Ask | Consider the compound CC(C)(C)c1nc2c3ccc(F)cc3c3c(=O)[nH]ccc3c2[nH]1 and give its measured residual activity.
Reply | 21.4
